Parameter IC50, tested on intestinal alkaline phosphatase (IAP) (Bos taurus, UniProt P19111), listed per item.
Sequence (P19111 20-533): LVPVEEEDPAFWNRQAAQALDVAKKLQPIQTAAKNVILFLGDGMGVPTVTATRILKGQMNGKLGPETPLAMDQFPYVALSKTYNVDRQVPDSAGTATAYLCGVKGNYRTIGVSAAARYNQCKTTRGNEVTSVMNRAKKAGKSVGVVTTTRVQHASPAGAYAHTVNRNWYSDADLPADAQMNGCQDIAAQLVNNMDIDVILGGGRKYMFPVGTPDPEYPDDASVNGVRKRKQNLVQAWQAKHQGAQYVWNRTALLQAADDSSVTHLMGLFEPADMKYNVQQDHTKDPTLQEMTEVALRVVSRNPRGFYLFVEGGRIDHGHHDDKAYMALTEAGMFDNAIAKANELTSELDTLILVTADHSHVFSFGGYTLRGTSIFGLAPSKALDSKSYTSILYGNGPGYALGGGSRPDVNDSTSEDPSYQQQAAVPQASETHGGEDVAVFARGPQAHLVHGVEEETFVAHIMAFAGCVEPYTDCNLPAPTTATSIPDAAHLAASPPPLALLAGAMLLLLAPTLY
# output: bare number, implied unit µM

Prompt line: Give the measured IC50 of N[C@@H](Cc1ccccc1)C(=O)O [L–Phenyl alanine, reference compound] .
Response line: 80.2

Now look at this one.
Prompt line: Give the measured IC50 of `Cc1c(Cl)cccc1/N=N/c1ccc(O)c(/C=N/N2C(=O)CNC2=S)c1` .
Response line: 3.15
